System: HOP-18 NSCLC
Experiment: NCI tumour cell line growth inhibition, 48 h
Measurement Label: TGI

Reference set, count: 3
CCCCCCCCCOCC(COP(=O)([O-])OCC[N+](C)(C)C)OC (configuration not stated) = > 100 µM
Cn1c2ccccc2c(=O)c2c(O)cc3c(c21)C=CC(C)(C)O3 = > 25 µM
C/C=C1\CN2CCc3c([nH]c4ccccc34)C2CC1CCO (configuration not stated) = > 100 µM

So for Clc1cccc(C2N3CCCCC3[C@@H]3c4[nH]c5ccccc5c4CCN23)c1 (some centres not stated) , the logged TGI turned out to be > 100 µM

Briefly, TGI measured for Cc1nc2c(o1)C(=Nc1ccccc1)c1nc(C)oc1C2=Nc1ccccc1 : 52.9 µM

Record Nc1c(Cl)ncnc1NCCCCCCCCCCCCNc1ncnc(Cl)c1N , field TGI: 83.1 µM

Value of measured TGI for the entry CC(C)CCCCCCCCCCCCC(=O)NCC(=O)NC1C(O)C(O)C(Nc2ncnc3nc[nH]c23)OC1C(O)CO (configuration not stated) : 0.00108 µM

Note to self: TGI recorded for Cc1cc(=O)n(-c2cc3cccccc-3n2)[nH]1 was 85.2 µM

// TGI value for O=C1c2ccccc2C2CCC1c1ccccc12 (configuration not stated) : > 100 µM

The reported TGI of the molecule COC(=O)[C@@H]1Cc2c([nH]c3ccccc23)[C@H](c2ccccc2)N1 was > 100 µM

Documented TGI of COC(=O)[C@@]12CC(C(C)C)[C@H]3CC(C(=O)C=C1OC)[C@H]32 (some centres not stated) : > 100 µM

Input Cc1cc(C)c(-c2noc(-c3ccc(Cl)cc3)c2C2=NCCCN2)c(C)c1 . Output TGI: > 100 µM

----------
System: SK-MEL-28 melanoma
Test: NCI tumour cell line growth inhibition, 48 h
Measurement Label: TGI (µM)
Hi! Could you send only the number? It should be in µM, unit omitted.

C=C(C(=O)OC)[C@@H]1C[C@@H](OC(C)=O)C2=C[C@H](C[C@@]3(C)O[C@@H]3C3=CC(C)=C(O3)[C@H]1OC(C)=O)OC2=O = 33.2
O=C(N/N=C/c1cc(Br)cc(Br)c1[O-])c1ccccc1O.O=C(N/N=C/c1cc(Br)cc(Br)c1[O-])c1ccccc1O.[Zn+2] = 11.5
CCOC(=O)/C=C(/C(=O)OCC)n1ccc(=O)n(Cc2cnnn2COCCOC(C)=O)c1=O = 32.2

Could you now look at the following compound, please?
Recorded TGI (compound COC1(OC)C2(Cl)C(Cl)=C(Cl)C1(Cl)C1C2C2CC1(C(=O)O)c1ccccc12 (stereo not drawn) ): 38.9

----------
Tested on: HOP-92 NSCLC
Assay: NCI tumour cell line growth inhibition, 48 h
Entries annotated with measured GI50

Cn1cc(-c2cnn3c(N)c(Br)c(C4CCCNC4)nc23)cn1 (centres undefined) = 5.51 µM

Entry c1ccc(CNCCN(CCNCc2ccccn2)Cc2ccc3ccccc3c2)nc1 ; GI50 = 1.79 µM

Lab book: GI50 of COc1cccc(Nc2nc3ccccc3c3occc23)c1 noted as 13 µM

GI50 measured on CCOc1ccn(-c2ccc(F)cc2)c(=O)c1C(=O)Nc1ccc(Oc2ccnc(N)c2Cl)c(F)c1 = 0.801 µM

----------
Tested on: A549 NSCLC
Assay: NCI tumour cell line growth inhibition, 48 h
Below: a set of entries, each annotated with reported TGI.

Below: 3 compounds and their reported TGI.
CN1CCN(Cc2ccc(NC(=O)c3cncc(C#Cc4cnc(N)c5cccnc45)c3)cc2C(F)(F)F)CC1 = > 50 µM
CO[C@H]1CC(O[C@@H]2/C(C)=C/C[C@@H]3C[C@@H](C[C@]4(CC[C@H](C)[C@@H](C5CCCCC5)O4)O3)OC(=O)[C@@H]3C=C(C)/C(=N/O)[C@H]4OC/C(=C\C=C\[C@@H]2C)[C@]43O)O[C@@H](C)C1O (some centres undefined) = 2.66 µM
CCOC(=O)/C(=N/Nc1ccccc1)N1C(=S)C=C(C)NN(C)C1=S = > 100 µM

# next compound below
Entry Cc1cc(=O)oc2cc(OCC(O)COC(C)C)ccc12 (centres undefined) : TGI on A549 NSCLC = > 100 µM

----------
TGI values by entry
Tested on: SF-539 CNS
Test: NCI tumour cell line growth inhibition, 48 h

Looking up Cc1cc(C)c(-c2c(N)cc(Br)cc2Br)c(N)c1 , I found its TGI recorded as 9.87 µM

----------
System: NCI-H226 lung
Experiment: NCI tumour cell line growth inhibition, 48 h
A collection of compounds and their measured GI50

GI50 of C#CCN(c1ccc(C(=O)N[C@@H](CCC(=O)N[C@H](CCC(=O)O)C(=O)O)C(=O)O)cc1)C1CCc2cc3nc(CO)[nH]c(=O)c3cc21 (some centres undefined) , assay on NCI-H226 lung, is > 100 µM

GI50 of Cn1cc(-c2cnn3c(N)c(Br)c(C4CCCNC4)nc23)cn1 (centres undefined) , assay on NCI-H226 lung, is 13.9 µM

Entry CCCCCCCCCC[C@H](O)[C@H](O)CC[C@@H](O)[C@H]1CC[C@@H]([C@H]2CC[C@H](CCCCCCC[C@@H](O)CC3=C[C@H](C)OC3=O)O2)O1 , NCI-H226 lung data, GI50 value: 21.2 µM

Item: c1ccc(CNCCN(CCNCc2ccccn2)Cc2ccc3ccccc3c2)nc1 | System: NCI-H226 lung | GI50: 1.77 µM

Observed GI50 on NCI-H226 lung, entry Cc1cc(Nc2nc(N[C@@H](C)c3ncc(F)cn3)ncc2Cl)n[nH]1 , equals 1.14 µM

----------
System: XF 498 CNS
Experiment: NCI tumour cell line growth inhibition, 48 h
The reader will find reported TGI values listed item by item below.

Nc1c(Cl)ncnc1NCCCCCCCCCCCCNc1ncnc(Cl)c1N = 3.02 µM

// moving on: another record for TGI
# TGI measured on XF 498 CNS for item CN(/N=C\c1ccnc2ccccc12)c1ccc([N+](=O)[O-])cc1 = > 100 µM

----------
TGI by entry:
Tested on: HOP-92 NSCLC
Assay: NCI tumour cell line growth inhibition, 48 h

CCOC(=O)c1nc2ccc(C(F)(F)F)cc2nc1NCc1ccc(OC)c(OC)c1 = > 100 µM

Reported TGI of CN1CCN(Cc2ccc(NC(=O)c3cncc(C#Cc4cnc(N)c5cccnc45)c3)cc2C(F)(F)F)CC1 : 1.16 µM

----------
System: SF-268 CNS
Assay: NCI tumour cell line growth inhibition, 48 h
Measurement Label: TGI

Cc1nc2c(o1)C(=Nc1ccccc1)c1nc(C)oc1C2=Nc1ccccc1 = 47.9 µM
Cn1cc2ccccc2c1-c1nc(F)nc(Oc2ccc3c(c2)CC[C@@H]2C3CC[C@@]3(C)C2C[C@H](O)[C@@H]3O)n1 (stereo not given in full) = 36.8 µM
C=CCC(N[C@@H](CO)c1ccccc1)c1cn(C(=O)OCC)c2ccccc12 (stereo not given in full) = 54.5 µM
O=C(O)C1[O][Sb][O]C(C(=O)O)C1O (stereo not given) = > 100 µM
CC(=O)NC(NCCN)(c1ccccc1)c1ccccc1 = > 100 µM
COc1ccc(/C=C2/SC(Nc3nc(-c4nc(NC5=NC(=O)/C(=C\c6ccc(OC)cc6)S5)sc4C)c(C)s3)=NC2=O)cc1 = > 33.8 µM

Item COC1CC(OC2C(C)OC(OC3C(C)OC(OC4C(C)OC(O[C@H]5CC[C@@]6(C)C(=CC[C@]7(O)[C@@H]6C[C@@H](OC(C)=O)[C@@]6(C)[C@]7(O)CC[C@@]6(O)C(C)=O)C5)CC4OC)CC3OC)CC2OC)OC(C)C1O (stereo not given in full) was tested on SF-268 CNS; the reported TGI is > 25 µM

# CSCSCC(CO)NC(=O)/C(C)=C\c1c(C)[nH]c(=O)[nH]c1=O (stereo not given) with SF-268 CNS: TGI is > 250 µM

Field TGI (system: SF-268 CNS) for entry Nc1nc(/C=C\c2ccccc2)nc(N2CCN(c3ccccc3)CC2)n1 = > 100 µM

Result for O=C(/C=C/c1cccc([N+](=O)[O-])c1)c1ccc([N+](=O)[O-])cc1 , tested on SF-268 CNS, TGI: > 100 µM

// TGI (SF-268 CNS) for COc1cccc(/C=C2\S/C(=N/Nc3nc(C)c(C)s3)NC2=O)c1O = > 100 µM

----------
Each item that follows carries a reported TGI.
Test system: SK-MEL-2 melanoma
Test: NCI tumour cell line growth inhibition, 48 h
Lab book: enter the figure in µM, no units written.

C=CCOC(=O)C1=C(C)NC2=N[C@H](CCCCCCCCC)C[C@@H]3CCC1N23 (some centres undefined) = 36.5

We next turn to a different compound, shown below.
Entry under test: CC1=CC[C@@]2(C)CC[C@](O)(C(C)C)C2C(OC(=O)c2ccccc2)C1 (some centres undefined) . Its TGI was 32.2
